system_name: T1, cyno TF ECD-His (cTF-his) (monkey (cyno))
T1 construct: also called bio-cTF-his; monkey TF-His protein
T1 chain: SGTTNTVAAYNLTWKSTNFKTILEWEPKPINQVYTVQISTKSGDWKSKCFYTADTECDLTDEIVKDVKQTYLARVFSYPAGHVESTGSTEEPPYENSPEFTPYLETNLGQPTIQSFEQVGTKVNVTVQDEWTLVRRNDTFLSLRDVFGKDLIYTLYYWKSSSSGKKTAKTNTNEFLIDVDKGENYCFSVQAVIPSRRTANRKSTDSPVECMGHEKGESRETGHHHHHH
assay_summary: SPR Biacore T200, antibody on Protein A chip, TF-His as analyte, 1:1 model
quantity_measured: Kd (nM)
A number alone suffices; assume nM.

binder | reported
hu67-4 (antibody, human IgG1, kappa, V domains shown) VH: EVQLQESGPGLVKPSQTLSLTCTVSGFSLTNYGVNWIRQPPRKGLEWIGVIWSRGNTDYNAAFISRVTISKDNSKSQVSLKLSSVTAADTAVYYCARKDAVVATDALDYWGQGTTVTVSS VL: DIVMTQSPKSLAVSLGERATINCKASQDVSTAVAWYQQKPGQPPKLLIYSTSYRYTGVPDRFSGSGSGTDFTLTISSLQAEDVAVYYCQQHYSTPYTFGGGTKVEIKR | 15.5

Turning now to a further record.
IN: Reported Kd for hu67-2 (antibody, human IgG1, kappa, V domains shown) VH: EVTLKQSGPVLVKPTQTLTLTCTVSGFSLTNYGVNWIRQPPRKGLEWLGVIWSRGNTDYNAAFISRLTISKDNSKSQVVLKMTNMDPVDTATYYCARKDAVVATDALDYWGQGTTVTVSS VL: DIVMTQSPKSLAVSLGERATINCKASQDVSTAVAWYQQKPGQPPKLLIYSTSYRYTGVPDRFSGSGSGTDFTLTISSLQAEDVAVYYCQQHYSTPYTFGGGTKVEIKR : what is it?
OUT: 12.7

Reference source: patent EP4703388A1
